Hi there, I'd appreciate the recorded inhibition for every entry that follows.
- system: Muscarinic acetylcholine receptor M1 (Homo sapiens)
- test-protocol: Allosteric inhibition of [3H]NMS dissociation rate constant k_1 from human muscarinic M1 acetylcholine receptor expressed in CHO cell membranes by radioligand binding assay
- experimental-context: concentration not given here
Provide only the numeric value, understood in %.

# inhibition (compound: `C[N+](C)(CC#CCOC1=NOCC1)CCCCCCNC(=O)c1cn(Cc2ccccc2)c2c(F)cccc2c1=O` ) is 15

Documented inhibition of `O=C(NCCCCCCBr)c1cn(Cc2ccccc2)c2c(F)cccc2c1=O` : 47

Record summary for `C[N+](C)(CC#CCOC1=NOCC1)CCCCNC(=O)c1cn(Cc2ccccc2)c2c(F)cccc2c1=O` : reported inhibition = 18

Documented inhibition of `CCCCCCCCN1CCC(n2c(=O)[nH]c3ccccc32)CC1` : 36

Note to self: inhibition recorded for `O=C(NCCCCBr)c1cn(Cc2ccccc2)c2c(F)cccc2c1=O` was 35
